Tested on: MOLT-4 leukemia
PROCEDURE TEXT: NCI tumour cell line growth inhibition, 48 h
Reported log10(TGI) by item:
Log10 applied to TGI; unit prior to transform: µM.

Some entries whose results are on file:
{"columns": ["MOLECULE", "SYSTEM NAME", "log10(TGI)"],
 "data": [
  ["Cc1ccc(S(=O)OC2c3ccccc3Cc3ccccc32)cc1 (centres undefined)", "MOLT-4 leukemia", 1.88],
  ["O=C(CSc1nc(-c2ccccc2)c(-c2ccccc2)[nH]1)N/N=C/c1ccc([N+](=O)[O-])cc1", "MOLT-4 leukemia", 1.69],
  ["O=C(NCCCNc1cc(-c2cn(-c3ccccc3)nc2-c2cccc(O)c2)ccn1)c1ccc(F)cc1", "MOLT-4 leukemia", 1.15],
  ["COc1ccc(C(=O)/C=C/c2ccc(OCC(=O)N3CCN(c4ccccc4)CC3)cc2)cc1OC", "MOLT-4 leukemia", 0.85]
]}

log10(TGI) reported for this molecule CC1(C)CCCCC1/C=C/C(CC(O)(C(F)(F)F)C(F)(F)F)=N\Nc1ccc([N+](=O)[O-])cc1[N+](=O)[O-] (centres undefined) : 0.76

log10(TGI) reported for this molecule COc1cc2cc(Oc3ccc(NC(=O)Nc4ccc(F)c(C(F)(F)F)c4)cc3)c(C)nc2cc1OCCN1CCOCC1 : 1.06

----------
Tested on: SN12C renal
PROCEDURE TEXT: NCI tumour cell line growth inhibition, 48 h
Reported TGI by item:

Some entries whose results are on file:
{"columns": ["MOLECULE", "TGI"],
 "data": [
  ["Cc1cccc2c1NC(=O)[C@@H](NC(=O)[C@H](CCC(F)(F)F)[C@H](CCC(F)(F)F)C(N)=O)N=C2c1cccc(F)c1", "> 100 µM"],
  ["O=C(CSc1nc(-c2ccccc2)c(-c2ccccc2)[nH]1)N/N=C/c1ccc([N+](=O)[O-])cc1", "31.9 µM"],
  ["Cc1cc(C)c2c(=O)cc(-c3ccc(F)cc3)[nH]c2n1", "> 100 µM"]
]}

TGI reported for this molecule CCOC(=O)C(=O)N=Nc1c(O)[nH]c2ccccc12 : > 100 µM

TGI reported for this molecule Nc1ccc(-c2nnc(-c3c(Cl)c(Cl)c(Cl)c(Cl)c3-c3nc4ccc(C(=O)c5ccccc5)cc4[nH]3)o2)cc1 : 37.7 µM

TGI reported for this molecule CC1(C)OP(=O)(c2ccccc2)C=C1Br (stereo not drawn) : > 100 µM

----------
System: ACHN renal
PROCEDURE TEXT: NCI tumour cell line growth inhibition, 48 h; in the data active means GI50 below about 0.43 µM; inactive means the rest
Tick one outcome: 1 = active, -1 = inactive

Please review the entries below; each comes with its answer.
{"columns": ["COMPOUND", "SYSTEM NAME", "LABEL"],
 "data": [
  ["COc1cc2cc(Oc3ccc(NC(=O)Nc4ccc(F)c(C(F)(F)F)c4)cc3)c(C)nc2cc1OCCN1CCOCC1", "ACHN renal", -1],
  ["O=C([CH-]C(=O)c1ccccc1)c1ccccc1.O=C([CH-]C(=O)c1ccccc1)c1ccccc1.[CH2-]CCC.[CH2-]CCC.[Sn+4]", "ACHN renal", -1],
  ["CCN1C2=C(SC(=S)C1=C1SC(C(=O)c3ccccc3)=C(C(=O)c3ccccc3)S1)SC(=Nc1ccccc1)C2=O", "ACHN renal", -1],
  ["O=C(NC(=S)Nc1ccc(-c2nc3ccccc3[nH]2)cc1)c1ccc2ccccc2c1", "ACHN renal", -1],
  ["Cl.Fc1c[c-]c(-c2ccccn2)c(F)c1.[Pt].c1ccc([PH+](c2ccccc2)c2ccccc2[PH+](c2ccccc2)c2ccccc2)cc1", "ACHN renal", 1]
]}

Q: For CC(=O)N[C@@H](Cc1ccc(OP(=O)(O)O)cc1)C(=O)N[C@H]1CCC(=O)N2CCC[C@@H](C(=O)NCc3cccc4ccccc34)N2C1=O , which call appears in the assay record?
A: -1

Q: For CCOC(=O)Nc1ccc2c3c(cccc13)-c1ccccc1-2 , which call appears in the assay record?
A: -1

Q: For COc1ncnn2ccc(-c3cnc4nc(C)n(Cc5nnc(C(C)F)o5)c4c3)c12 (centres undefined) , which call appears in the assay record?
A: 1

Q: For CSc1nc(SC)c2cnn(-c3ccnc4cc(Cl)ccc34)c2n1 , which call appears in the assay record?
A: -1
